Test system: ACHN renal
PROTOCOL: NCI tumour cell line growth inhibition, 48 h; in the data active means GI50 below about 0.43 µM; inactive means the rest
# valid calls are true = active, false = inactive; nothing else

Illustrative cases are given below, each with its answer.
O=C1c2c(c3c4ccccc4n(CCCCCCBr)c3c3[nH]c4ccccc4c23)C(=O)N1O : false
Cc1ccc(CS/C(=C\c2ccc([N+](=O)[O-])cc2)C(=O)c2ccc(F)cc2)cc1 : false
N#CSCC1CC(O)(c2ccccc2)C(c2ccccc2)C(c2ccc(Cl)cc2)O1 (stereo unspecified) : false
OCCNc1nc(NCCO)nc(Nc2ccc(C3=NN(c4cc(Cl)cc(Cl)c4)C(c4ccc(C(F)(F)F)cc4)C3)cc2)n1 (stereo unspecified) : false
COc1ccc(/C(=C2\O[C@@H]([C@H]3COC(C)(C)O3)[C@H]3OC(C)(C)O[C@@H]23)c2cc(OC)c(OC)c(OC)c2)cc1O : false

**Query** How did this test come out for O=[N+]([O-])/C=C\c1ccc(Cl)c(Cl)c1 ?
**Result** false

**Query** Look up the recorded call for O=C(NCCOCCOCCNc1cccc2c1C(=O)N(C1CCCNC1=O)C2=O)c1cc2c(o1)C(=O)c1ccccc1C2=O (stereo unspecified) in this test.
**Result** false
